- target_desc: GlcNAc(b1-3)Gal(b1-3)GalNAc
- assay_remarks: glycan array binding signal (z-score within array); higher = stronger binding
- condition_notes: glycan notation: IUPAC condensed, linker removed
This excerpt belongs to a sample that is enriched for the strongest signals.
Consider the following binders and their measured glycan array binding signal (z-score) readings.
Reply briefly: the number, and no unit.

Examples from the recorded data:
1. SefD (Salmonella enterica), Q9L6K6 (protein) GAYIIRGQNNSAHKLRIRIGGEDWQPDNSGIGMVSHSDFTNEFNIYYFGNGDIPVDTYLISIYATEIEL :: -0.29
2. LecB LY19 (Pseudomonas aeruginosa) (protein) MATQGVFTLPANTQFGVTAFANSAGTQTVNVQVNNETVATFTGQSTNNGIIGSKVLNSGGGGKVQILVSVNGRSSDLVSAQVILANELNFALVGSEDSTDNDYNDAVVVINWPLG :: -0.542
3. SAOUHSC 02783 (Staphylococcus aureus), Q5HD69 (protein) MIHSKKLTLGICLVLLIILIVGYVIMTKTNGRNAQIKDTFNQTLKLYPTKNLDDFYDKEGFRDQEFKKGDKGTWIVNSEMVIEPKGKDMETRGMVLYINRNTRTTKGYYFISEMTDDSNGRPKDDEKRYPVKMEHNKIIPTKPLPNDKLKKEIENFKFFVQYGNFKDINDYKDGDISYNPNVPSYSAKYQLNNDDYNVQQLRKRYDIPTKQAPKLLLKGDGDLKGSSVGSRSLEFTFVENKEENIYFTDSVQYTPSEDTRYESN :: -0.447

// moving on: another record for glycan array binding signal (z-score)
stdin: Item BSR4 (Toxoplasma gondii), Q95NL6 (protein) MVMMGSMQQRRGGLRSNARQLLAVCMSGVVFFSSGQAVADNLLEGLLHRTLQQQVEVTSRLTVAGSDAKCDFFTPATQDSPPVSGSLTLSKGRMTATFECSATQALSISTIPTNIEQNVCDPKKTTNGTVCQFGANGSAGTEVTLKDLLETDRIVNWKVNEQREESNKSQKWSLELHNEDLPLTDKAFVVGCQATSAARGTESGKTAACKLTVNVEARASSLAENNVVTCAYGKGSNPNPVEVEMSTEKNTLTINCGSDGSLQPTTYAEEYCVADSKDVNRCSTTRFVEIFPKFLKSWWVTETQKRTSATLTIPQTDLPEADQQFLVGCVPKKTAPEDPKKDKESGTETGAPTSCTVLVTVKAASSASHASPTVQILAAASSAAA has what recorded glycan array binding signal (z-score)?
stdout: 1.23
